Biological target: aggregated tau protein (wild-type K18) (Homo sapiens, UniProt P10636)
Construct: Tau protein (wild-type K18)
Sequence (P10636 561-685 limits assumed): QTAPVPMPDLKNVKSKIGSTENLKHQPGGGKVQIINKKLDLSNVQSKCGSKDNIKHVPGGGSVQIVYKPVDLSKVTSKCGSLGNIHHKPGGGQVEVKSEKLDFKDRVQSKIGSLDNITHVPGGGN
Assay: Tau protein aggregate degradation test (thioflavin T assay)
Format: biochemical
Settings: 50 uM test compound; pre-aggregated tau, further 5 days at 37° C.; ThT fluorescence vs control = 100%
quantity.name: ThT fluorescence remaining (% of control)

A selection of reference data follows.
compound: CCN1C(=O)/C(=C/c2c[nH]c3cccnc23)SC1=S [DN205781]
result: 28.74 % of control

compound: O=C1NC(=S)S/C1=C\c1c[nH]c2ccccc12 [DN204296]
result: 30.26 % of control

stdin: Kindly state the measured ThT fluorescence remaining (% of control) obtained for O=C1NC(=S)S/C1=C\c1ccsc1 [DN204299] with aggregated tau protein (wild-type K18) (Homo sapiens, UniProt P10636).
stdout: 72.21 % of control

stdin: Next entry: CCN1C(=O)/C(=C/c2ccoc2)NC1=S [DN204814]
stdout: 30.07 % of control

stdin: Next entry: O=C1NC(=S)S/C1=C\c1csc2ccccc12 [DN204818]
stdout: 14.94 % of control

stdin: Next entry: O=C1NC(=S)S/C1=C\c1cc[nH]c1 [DN204297]
stdout: 52.16 % of control

stdin: Next entry: O=C1NC(=O)C(Cc2c[nH]c3ccccc23)S1 (centres unmarked) [DN204295]
stdout: 89.98 % of control

stdin: Next entry: O=C1NC(=O)C(Cc2ccoc2)S1 (centres unmarked) [DN204292]
stdout: 82.23 % of control

stdin: Next entry: O=C1NC(=S)S/C1=C\c1c[nH]c2ncccc12 [DN205355]
stdout: 49.41 % of control

stdin: Next entry: CCN1C(=O)/C(=C/c2c[nH]c3ccccc23)NC1=S [DN204811]
stdout: 50.44 % of control

stdin: Next entry: O=C1NC(=S)S/C1=C\c1c[nH]c2cccnc12 [DN204808]
stdout: 62.2 % of control

* * *

Biological target: aggregated beta-amyloid; human Aβ 1-42 (UniProtKB-P05067, a.a. 672-713) (Homo sapiens, UniProt P05067)
Construct: UniProtKB-P05067, a.a; 672-713
Sequence (P05067 672-713): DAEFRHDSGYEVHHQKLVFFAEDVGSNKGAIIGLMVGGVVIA
Test: Beta-amyloid aggregate degradation test (thioflavin T assay)
Assay type: biochemical
Conditions: 50 uM test compound; pre-aggregated Aβ, further 3 days at 37° C.; ThT fluorescence vs control = 100%
quantity.name: Beta-amyloid aggregate degradation activity (% of control)

compound: O=C1NC(=S)S/C1=C\c1ccoc1
result: 59.37 % of control

stdin: // query Beta-amyloid aggregate degradation activity (% of control) value for entry O=C1NC(=S)SC1Cc1cc[nH]c1 (stereo not drawn)
stdout: 90.66 % of control

stdin: Next entry: `O=C1NC(=O)/C(=C/c2c[nH]c3cccnc23)S1`
stdout: 83.66 % of control

stdin: Next entry: `CCN1C(=O)/C(=C/c2c[nH]c3ccccc23)NC1=S`
stdout: 74.64 % of control

stdin: Next entry: `O=C1NC(=S)S/C1=C\c1c[nH]c2ncccc12`
stdout: 93.80 % of control

stdin: Next entry: `O=C1NC(=S)S/C1=C\c1cc[nH]c1`
stdout: 86.80 % of control

* * *

Target: Tau protein (wild-type K18) (Homo sapiens, UniProt P10636)
Construct: Tau protein (wild-type K18)
Sequence (P10636 561-685 limits assumed): as the sequence (P10636 561-685 limits assumed) above
Assay: Tau protein aggregation inhibition test (thioflavin T assay)
Format: biochemical
Settings: 50 uM test compound; heparin/DTT-induced aggregation, 37° C. 5 days; ThT fluorescence vs tau-only control = 100%
Method: Tau protein (wild-type K18) was dissolved in phosphate-buffered saline (PBS, pH 7.4) at a concentration of 1 mg/mL to prepare a tau protein solution. […] The inhibitory effect of each compound against tau aggregation was measured based on the intensity of fluorescence by thioflavin T (ThT) assay (see Example 2). […]
quantity.name: Tau aggregation remaining (ThT fluorescence, % of tau-only control)

compound: O=C1NC(=S)SC1Cc1cnc2ccccc2c1 (centres unmarked) [DN204302]
tested.target: Tau protein (wild-type K18) (Homo sapiens, UniProt P10636)
result: 67.16 % of control
--
compound: O=C1NC(=S)S/C1=C\c1cc[nH]c1 [DN204297]
tested.target: Tau protein (wild-type K18) (Homo sapiens, UniProt P10636)
result: 48.721 % of control
--
compound: O=C1NC(=S)SC1Cc1c[nH]c2ncccc12 (centres unmarked) [DN204304]
tested.target: Tau protein (wild-type K18) (Homo sapiens, UniProt P10636)
result: 70.66 % of control
--
compound: O=C1NC(=O)/C(=C/c2c[nH]c3cnccc23)S1 [DN204290]
tested.target: Tau protein (wild-type K18) (Homo sapiens, UniProt P10636)
result: 63.13 % of control
--
compound: CCN1C(=O)/C(=C/c2csc3ccccc23)NC1=S [DN204810]
tested.target: Tau protein (wild-type K18) (Homo sapiens, UniProt P10636)
result: 87.61 % of control

stdin: // query Tau aggregation remaining (ThT fluorescence, % of tau-only control) value for entry O=C1NC(=O)/C(=C/c2c[nH]c3ccccc23)S1 [DN204285]
stdout: 53.14 % of control

stdin: Next entry: O=C1NC(=S)SC1Cc1ccsc1 (centres unmarked) [DN204306]
stdout: 66.31 % of control
